# Assay conditions: in n-butanol, 323.15 K
Property: solubility (mole fraction)
Give the value as a plain number.

Lab note: measured solubility (mole fraction) of O=C(O)CN(CC(=O)O)CP(=O)(O)O was 0.000831

====

# Assay conditions: in n-pentanol, 313.15 K
Property: solubility (mole fraction)

Lab note: measured solubility (mole fraction) of O=C(O)CN(CC(=O)O)CP(=O)(O)O was 0.000377

====

# Assay conditions: in methanol, 323.15 K
Property: solubility (mole fraction)
Give the value as a plain number.

Lab note: measured solubility (mole fraction) of O=C(O)CN(CC(=O)O)CP(=O)(O)O was 0.000243

The reported measurements were obtained from BigSolDB 2.1.
